assay: Surface plasmon resonance binding to immobilized DMPC liposomes (L1 chip); details: read-out: Apparent KD for DMPC; SPR, 30°C, water; Req extrapolated to infinite time; 4 separate experiments
Measured Metric: Kd (µM)

• CCOC(=O)c1c(CSc2ccccc2)n(C)c2cc(Br)c(O)c(CN(C)C)c12.Cl = 6.8

* * *

biological target: Trp residues of model membrane-binding peptides (HCV NS4A and BVDV NS5A); assay: Trp fluorescence quenching, model membrane peptides taken together; details: HCV NS4A and BVDV NS5A peptides in PC∶chol liposomes, both pH, summary; read-out: Apparent KD toward peptide Trp
pKd: −log10 of the molar value.
Measured Metric: pKd

• CCOC(=O)c1c(CSc2ccccc2)n(C)c2cc(Br)c(O)c(CN(C)C)c12.Cl = ~5.40

* * *

assay: Indole fluorescence quenching of tryptophan derivative in micelles or liposomes; format: binding; conditions: TOE in lyso-PC micelles (1∶800); pH 7.4; read-out: KD
pKd: −log10 of the molar value.
Measured Metric: pKd

• CCOC(=O)c1c(CSc2ccccc2)n(C)c2cc(Br)c(O)c(CN(C)C)c12.Cl [Arb] = 4.24

* * *

test: Indole fluorescence quenching of tryptophan derivative in micelles or liposomes; assay type: binding; details: TOE in PC liposomes (1∶20); pH 5.0; read-out: KD
pKd: −log10 of the molar value.
Measured Metric: pKd

- CCOC(=O)c1c(CSc2ccccc2)n(C)c2cc(Br)c(O)c(CN(C)C)c12.Cl: 5.04

* * *

test: Indole fluorescence quenching of tryptophan derivative in solution; assay type: binding; details: NATA in solution; pH 7.4
pKd: −log10 of the molar value.
Measured Metric: pKd

• CCOC(=O)c1c(CSc2ccccc2)n(C)c2cc(Br)c(O)c(CN(C)C)c12.Cl = 4.19

* * *

experiment: Indole fluorescence quenching of tryptophan derivative in micelles or liposomes; assay type: binding; conditions: TOE associated to liposomes (1∶20), summary; read-out: KD (apparent affinity)
Measured Metric: Kd

- CCOC(=O)c1c(CSc2ccccc2)n(C)c2cc(Br)c(O)c(CN(C)C)c12.Cl [Arb]: ~10 µM

* * *

Molecular target: E2[606–625] peptide (Hepatitis C virus genotype 1a)
Test: Trp fluorescence quenching of fusion-related peptide in PC:chol liposomes
Type: binding, HCV strain H (genotype 1a)
Details: peptide in PC∶chol liposomes (1∶20), pH 5.0
Method: Measurements were recorded on a Tecan Infinite® M1000 spectrofluorimeter.
Measured Metric: Kd (µM)

- CCOC(=O)c1c(CSc2ccccc2)n(C)c2cc(Br)c(O)c(CN(C)C)c12.Cl: 70

* * *

assay: Indole fluorescence quenching of tryptophan derivative in solution; format: binding; details: NATA in solution; pH 5.0
pKd: −log10 of the molar value.
Measured Metric: pKd

- CCOC(=O)c1c(CSc2ccccc2)n(C)c2cc(Br)c(O)c(CN(C)C)c12.Cl: 4.26

* * *

molecular target: HCV NS4A[1–22]* transmembrane peptide (Hepatitis C virus genotype 1a, UniProt P27958); construct: HCV NS4A[1–22]* transmembrane peptide […]; assay: Trp fluorescence quenching of peptide in PC:chol liposomes; format: binding; settings: peptide in PC∶chol liposomes (1∶20), pH 5.0
Measured Metric: Kd (µM)

* CCOC(=O)c1c(CSc2ccccc2)n(C)c2cc(Br)c(O)c(CN(C)C)c12.Cl | 5.6

* * *

Test: Indole fluorescence quenching of tryptophan derivative in micelles or liposomes
Assay type: binding
Conditions: TOE in lyso-PC micelles (1∶800); pH 5.0; read-out: KD
Protocol: Measurements were recorded on a Tecan Infinite® M1000 spectrofluorimeter.
Measured Metric: Kd (µM)

- CCOC(=O)c1c(CSc2ccccc2)n(C)c2cc(Br)c(O)c(CN(C)C)c12.Cl: 48

* * *

target: HCV NS4A[1–22]* transmembrane peptide (Hepatitis C virus genotype 1a); construct: HCV NS4A[1–22]* transmembrane peptide […]; assay: Trp fluorescence quenching of peptide in PC:chol liposomes; type: binding; details: peptide in PC∶chol liposomes (1∶20), pH 7.4
pKd: −log10 of the molar value.
Measured Metric: pKd

* CCOC(=O)c1c(CSc2ccccc2)n(C)c2cc(Br)c(O)c(CN(C)C)c12.Cl [Arb] | 5.48
